Just for reference, patent US20240392002A1 is where these values come from.

Target: T1, extracellular domain of human ROR1 (human, UniProt Q01973 30-406)
T1 construct: bought protein; biotinylated in the bivalent assay format; also called Acro Cat. No. RO1-H522y
T1 sequence (Q01973 30-406 limits assumed): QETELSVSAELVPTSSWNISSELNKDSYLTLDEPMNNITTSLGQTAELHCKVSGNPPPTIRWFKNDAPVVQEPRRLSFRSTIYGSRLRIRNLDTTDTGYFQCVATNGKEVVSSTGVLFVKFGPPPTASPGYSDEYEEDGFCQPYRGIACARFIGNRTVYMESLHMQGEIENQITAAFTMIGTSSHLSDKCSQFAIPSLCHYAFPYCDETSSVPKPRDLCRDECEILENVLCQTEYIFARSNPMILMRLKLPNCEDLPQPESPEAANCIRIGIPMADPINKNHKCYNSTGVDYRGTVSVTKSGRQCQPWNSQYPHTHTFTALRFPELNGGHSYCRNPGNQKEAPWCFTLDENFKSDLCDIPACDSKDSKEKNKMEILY
Test: BLI, IgG1 on biosensor, soluble ROR ectodomain

binder: I2C-24 IgG1 (antibody, V domains shown, human IgG1) VH: EVQLVESGGGLVQPGGSLRLSCAASGFTFSRYYIHWVRQAPGKGLEWVADIDSYGGFTYYADSVKGRFTISADTSKNTAYLQMNSLRAEDTAVYYCARAHRFLQGGYVLDYWGQGTLVTVSS VL: DIQMTQSPSSLSASVGDRVTITCRASQSVSSAVAWYQQKPGKAPKLLIYSASSLYSGVPSRFSGSRSGTDFTLTISSLQPEDFATYYCQQYSWGLWTFGQGTKVEIK
binding result: binds

binder: I2C-17 IgG1 (antibody, V domains shown, human IgG1) VH: EVQLVESGGGLVQPGGSLRLSCAASGFTFSDYFIHWVRQAPGKGLEWVAYIYPASGGTCYADSVKGRFTISADTSKNTAYLQMNSLRAEDTAVYYCARGYIPHMAALDYWGQGTLVTVSS VL: DIQMTQSPSSLSASVGDRVTITCRASQSVSSAVAWYQQKPGKAPKLLIYSASSLYSGVPSRFSGSRSGTDFTLTISSLQPEDFATYYCQQYYWWPGTFGQGTKVEIK
binding result: binds

binder: I2C-8 IgG1 (antibody, V domains shown, human IgG1; same CDRs as I2A-16; also called 12C-8) VH: EVQLVESGGGLVQPGGSLRLSCAASGFTFSGYFIHWVRQAPGKGLEWVAAIFPYRGGTSYADSVKGRFTISADTSKNTAYLQMNSLRAEDTAVYYCARGGVSPGGFDYWGQGTLVTVSS VL: DIQMTQSPSSLSASVGDRVTITCRASQSVSSAVAWYQQKPGKAPKLLIYSASSLYSGVPSRFSGSRSGTDFTLTISSLQPEDFATYYCQQYYLYPGTFGQGTKVEIK
binding result: binds
